# MEASURED_ON: DN-III quality control recombinant protein (produced by Fapon Biotech InC.) (dengue virus)
# EXPERIMENTAL_PROTOCOL: BLI, AMC sensor, antibody captured
Please respond with reported koff for every item in the list.
Numbers only, in s⁻¹.

{"BINDER": "Mutation 1-38 (antibody, V domains shown) VH: EVQLQQSGTELVRPGALVKLSCKASGFNIKDYYLHWVKQRPRQGLEWIGWIDPENGKTLYDPKFQDKASITSDTSTNTAYLQLRSLTSEDTAVYYCVTAYFRFVYWGQGTLVTVSA VL: QIVLTQSPAIMSAFPGERVTMTCSASSSVRYMYWHQQKPGSSPRLLIYDTSNIASGVPVRFSGSGSGTSYSLTISRDEAMDAATYYCQQWSSYPRTFGGGTKLEIKR", "VALUE_UNITS": "s⁻¹", "koff": "1.37e-05"}

Next binder, please.
// Mutation 1-33 (antibody, V domains shown) VH: EVQLQQSGTELVRPGALVKLSCKASGFNIKDYYVHWVKQRPRQGLEWIGWIDPENGKTLYDPKFQDKASITSDTSTNTAYLQLRSLTSEDTAVYYCVTAYYRFVYWGQGTLVTVSA VL: QIVLTQSPAIMSAFPGERVTMTCSASTSVRYMYWHQQKPGSSPRLLIYDTSNIASGVPVRFSGSGSGTSYSLTISRDEAMDAATYYCQQWSSYPRTFGGGTKLEIKR : koff value = 4.68e-05

Recorded values, source patent US20240158475A1.
